Tested on: B16F10 cells
procedure summary: B16F10 mIFNγ-induced cell growth inhibition assay (CTG)
Assay type: cell-based
experimental context: B16F10 cells with mIFNγ final concentration 25 ng/ml, 96 h, CTG readout
Method: 40 µL (150 cells/well) of B16F10 cells (source ATCC Cat#CRL-6475) were inoculated into a 384-well plate, and the compounds were transferred to the 384-well plate containing cells using EHCO. […] 25 µL of CTG was added, Envision was used for reading, the cell growth inhibition IC50 value (Cell IC50) was fitted by nonlinear regression analysis using a four-parameter logistic equation with DMSO/mIFNγ as the negative control and [drawing 152] as the positive control.
Known GI50 of a selection of compounds
quantity measured: GI50

compound	value observed
CC(C)CCNCC1Cc2cc(O)c(N3CC(=O)NS3(=O)=O)c(F)c2/C1=C/F (single isomer, unassigned) [Compound 6]	≤ 1 µM
CC(C)CCN[C@H]1Cc2c(cc(O)c(N3CC(=O)NS3(=O)=O)c2F)C2CC21 (single isomer, unassigned) [Compound 2]	10 to 100 µM
CC(C)CCN[C@H]1Cc2c(cc(O)c(N3CC(=O)NS3(=O)=O)c2F)C2CC21 (single isomer, unassigned) [Compound 3]	≤ 1 µM
CC(C)CCNCC1Cc2cc(O)c(N3CC(=O)NS3(=O)=O)c(F)c2/C1=C/F (single isomer, unassigned) [Compound 5]	10 to 100 µM

---

tgt: PTPN2 (Homo sapiens, UniProt P17706)
Sequence (P17706 whole entry): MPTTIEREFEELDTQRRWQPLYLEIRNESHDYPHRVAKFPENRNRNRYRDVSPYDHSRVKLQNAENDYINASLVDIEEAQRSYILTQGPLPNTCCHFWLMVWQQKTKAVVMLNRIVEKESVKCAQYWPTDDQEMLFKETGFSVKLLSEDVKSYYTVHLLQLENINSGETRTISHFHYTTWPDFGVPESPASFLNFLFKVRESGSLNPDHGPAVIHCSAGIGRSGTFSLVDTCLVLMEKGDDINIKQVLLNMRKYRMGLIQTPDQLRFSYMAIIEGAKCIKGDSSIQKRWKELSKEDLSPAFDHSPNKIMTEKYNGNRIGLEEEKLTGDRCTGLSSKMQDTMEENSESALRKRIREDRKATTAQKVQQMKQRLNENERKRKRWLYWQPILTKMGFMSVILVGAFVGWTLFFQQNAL
procedure summary: PTPN2 inhibitory activity assay (HTRF)
experimental context: PTPN2 final concentration 1 nM, substrate 1 µM, 40 min at room temperature
pIC50: −log10 of the molar value.
quantity measured: pIC50

compound	quantity measured	value observed
O=C1CN(c2c(O)cc3c(c2F)C[C@H](NCC2CCCCO2)C2CC32)S(=O)(=O)N1 (stereo partly shown)	pIC50	6.30 to 7.00
CC(C)CCNCC1Cc2cc(O)c(N3CC(=O)NS3(=O)=O)c(F)c2/C1=C\F (racemic)	pIC50	7.00 to 7.70
O=C1CN(c2c(O)cc3c(c2F)C[C@H](NCCC2CCCCC2)C2CC32)S(=O)(=O)N1 (stereo partly shown)	pIC50	≥ 7.70
CC(C)CCN[C@H]1Cc2c(cc(O)c(N3CC(=O)NS3(=O)=O)c2F)C2CC21 (single isomer, unassigned) [Compound 3]	pIC50	≥ 7.70

Just for reference, patent EP4745136A1 is where these values come from.
